- test.target: Metabotropic glutamate receptor 8 (Rattus norvegicus)
- method.summary: mGluR8 Gi/Go-coupled signaling modulation – cell-based, rat, thallium flux, HTS, primary screen (AID 488969)
- measurement.conditions: HEK293 rat mGluR8, GIRK thallium flux, FluoZin2; at 10 µM; stronger effect = higher value; submaximal glutamate (EC20) added with thallium
Over roughly 110,000 compounds, “z-score” has its median near -0.1; the highest 2% begin near 2. The full list was thinned out, with the highest values kept by preference.
quantity.kind: z-score
Please reply with the number alone, leaving off any unit.

Consider the worked cases shown below.
>>> numeric_readout("COc1ccc(-c2nc(Cn3c(SCc4ccc(F)cc4)nc4ccncc43)c(C)o2)cc1OC")
0.565
>>> numeric_readout("COc1cc(CNCc2ccccn2)ccc1OCc1ccc(Cl)cc1")
0.427

Endpoint output: z-score of CC1CCCC(NC(=S)NC(=O)c2ccccc2Br)C1C (stereo not given) . Value?
2.91

Can you handle COc1ccc(C(=O)N2N=C(c3cccc(OC)c3)CC2(O)C(F)(F)F)cc1 (stereo not given) next?
0.326

COc1cccc(C(=O)N2N=C(c3cccc(OC)c3)CC2(O)C(F)(F)F)c1 (stereo not given) , same question.
0.00352

Do the same for CC1CCCCC1NC(=S)NC(=O)c1ccccc1Br (stereo not given) please
0.799

# iterate: CCOc1ccc2nc(NC(=O)CN3CCN(C)CC3)sc2c1
0.433

Follow-up entry: CCc1cc2c(=O)[nH]c(Cc3ccccc3)nc2s1
-0.371

Try this compound too: Cc1ccc(NC(=O)COC(=O)CNC(=O)c2ccc(Br)cc2)c(C)c1
-0.336

Thanks! And CCOC(=O)CC(=O)CSc1nc2c(cc1C#N)CCCCC2 ?
1.09

---

- test.target: Metabotropic glutamate receptor 8 (Rattus norvegicus)
- method.summary: mGluR8 Gi/Go-coupled signaling modulation – cell-based, rat, thallium flux, HTS, primary screen (AID 488969)
- measurement.conditions: HEK293 rat mGluR8, GIRK thallium flux, FluoZin2; at 10 µM; stronger effect = higher value; submaximal glutamate (EC20) added with thallium
The full ranking holds about 110,000 compounds; the median of “z-score” is about -0.1, and the highest 2% start at about 2. This is one part of a sample in which the highest values are shown more often than they occur.
Tick TRUE if z-score is 0.07 or greater. Tick FALSE if z-score is less than 0.07.

>>> category_label("CCOc1ccc(-c2nc(-c3ccc(OC)c(OC)c3)no2)cc1OCC")
"TRUE"
>>> category_label("CC1(C)CC(=O)C2=C(C1)N(Cc1ccco1)C(=O)C2(NC(=O)c1ccc(Cl)cc1Cl)C(F)(F)F (stereo not given)")
"FALSE"
>>> category_label("O=C(Nc1nnc(-c2ccc(Cl)cc2)o1)c1ccc(N2C(=O)CCC2=O)cc1")
"TRUE"
>>> category_label("Cc1cnc(C(=O)Nc2cc(S(=O)(=O)N3CCOCC3)ccc2N2CCN(C)CC2)cn1")
"FALSE"
>>> category_label("CC(C)(C)NS(=O)(=O)c1ccc(CCC(=O)Nc2cc(Cl)ccc2Oc2ccccc2)cc1")
"FALSE"

Does the molecule COc1ccc(-c2noc(-c3ccc(Cl)cc3[N+](=O)[O-])n2)cc1OC have recorded z-score that is 0.07 or more?
FALSE

For CCOC(=O)c1nnn(CC(=O)N2N=C(c3cc(C)ccc3C)CC2c2ccc(OC)cc2)c1C(=O)OCC (stereo not given) then?
FALSE

Another molecule to check: CCOc1nc(C)ccc1-c1noc(-c2ccncc2)n1
TRUE

Then this molecule: O=C(Nc1nnc(-c2ccc(Cl)cc2)o1)NC1CCCCC1
FALSE

Continue with Cc1cccc(N2CCN(C(=O)COc3ccc4c(c3)CCC4)CC2)c1C
FALSE

Next record, please: Cc1cc(C)cc(C(=O)N2CCCCCC2)c1
TRUE

Here is the next molecule: O=C(Nc1nnc(-c2ccc(Cl)cc2)o1)c1cccc(N2C(=O)CCC2=O)c1
TRUE

Same for C=CCNC(=O)C1CC(=O)N(c2ccc(OCC(=O)Nc3ccc(OC)cc3)cc2)C1 (stereo not given)
FALSE

Queued: O=C(Nc1ccccc1)c1cccc(N2C(=O)CCC2=O)c1
FALSE

---

- test.target: Metabotropic glutamate receptor 8 (Rattus norvegicus) (UniProt P70579)
- Sequence (P70579 whole entry, looked up): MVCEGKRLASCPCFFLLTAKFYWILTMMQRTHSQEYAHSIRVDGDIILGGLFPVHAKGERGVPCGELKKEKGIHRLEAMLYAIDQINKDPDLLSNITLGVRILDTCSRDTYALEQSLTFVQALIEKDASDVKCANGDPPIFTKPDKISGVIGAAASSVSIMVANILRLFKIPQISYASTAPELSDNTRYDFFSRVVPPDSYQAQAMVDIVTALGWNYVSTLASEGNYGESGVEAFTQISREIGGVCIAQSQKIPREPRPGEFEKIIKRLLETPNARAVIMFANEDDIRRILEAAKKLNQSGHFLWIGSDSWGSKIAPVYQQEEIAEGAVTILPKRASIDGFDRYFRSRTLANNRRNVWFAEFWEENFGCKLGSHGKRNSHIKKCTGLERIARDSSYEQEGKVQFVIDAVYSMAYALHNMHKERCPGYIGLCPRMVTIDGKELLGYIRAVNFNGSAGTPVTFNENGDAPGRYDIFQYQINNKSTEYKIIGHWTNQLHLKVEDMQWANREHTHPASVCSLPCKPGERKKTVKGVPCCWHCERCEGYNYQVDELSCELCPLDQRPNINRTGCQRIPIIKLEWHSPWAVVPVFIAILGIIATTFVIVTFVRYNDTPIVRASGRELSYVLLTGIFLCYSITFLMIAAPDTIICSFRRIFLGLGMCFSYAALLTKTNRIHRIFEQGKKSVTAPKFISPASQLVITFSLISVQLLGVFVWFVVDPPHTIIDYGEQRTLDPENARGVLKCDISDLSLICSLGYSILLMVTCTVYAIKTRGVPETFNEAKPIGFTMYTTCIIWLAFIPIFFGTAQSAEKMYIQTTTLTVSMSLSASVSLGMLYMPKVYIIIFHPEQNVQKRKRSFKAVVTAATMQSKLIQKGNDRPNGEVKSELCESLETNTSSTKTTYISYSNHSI
- method.summary: mGluR8 Gi/Go-coupled signaling modulation – cell-based, rat, thallium flux, HTS, primary screen (AID 488969)
- measurement.conditions: HEK293 rat mGluR8, GIRK thallium flux, FluoZin2; at 10 µM; stronger effect = higher value; submaximal glutamate (EC20) added with thallium
Whole data set: some 110,000 compounds, median “z-score” near -0.1, cut for the highest 2% near 2. Many of the other results were omitted from the sample, so the highest values are more common in it than they were.
This listing pairs compounds with measured z-score.
Just the number, please, no unit after it.

>>> numeric_readout("CCc1ccccc1NC(=O)C(C#N)Cc1cccnc1 (stereo not given)")
0.345
>>> numeric_readout("CCC(=O)NC(=S)Nc1ccccc1C(F)(F)F")
0.0622
>>> numeric_readout("Cc1ccc(S(=O)(=O)N(C)CC(=O)O/N=C(\\N)c2ccc([N+](=O)[O-])cc2)cc1")
-0.621

Consider the compound Cc1ccccc1NC(=O)/C(C#N)=C\c1cccnc1 and give its measured z-score.
-0.183

Another compound to check: O=C(NO)c1ccc(OC(F)F)cc1
0.319

---

# z-score annotations
- test.target: Metabotropic glutamate receptor 8 (Rattus norvegicus) (UniProt P70579)
- method.summary: mGluR8 Gi/Go-coupled signaling modulation – cell-based, rat, thallium flux, HTS, primary screen (AID 488969)
- measurement.conditions: HEK293 rat mGluR8, GIRK thallium flux, FluoZin2; at 10 µM; stronger effect = higher value; submaximal glutamate (EC20) added with thallium
Whole data set: some 110,000 compounds, median “z-score” near -0.1, cut for the highest 2% near 2. The full list was thinned out, with the highest values kept by preference.
// response body must contain only the number

Need z-score, item COc1ccccc1NC(=O)Cc1nn(C)c(=O)c2ccccc12
-0.677

And what about the compound OC(CN=c1sc2ccccc2n1CC(O)COc1ccccc1)COc1ccccc1 (configuration not stated) ?
0.0732

Also check COc1cc(O)oc1C=Nc1ccc(Cl)cc1
-0.289

Can you handle CN(/N=C/c1cccnc1)c1cnn(-c2ccc(F)c(Cl)c2)c(=O)c1Cl next?
-0.0102

And what about the compound CCOC(=O)c1ccc(NC(=O)Cn2nnc(-c3ccccc3F)n2)cc1 ?
-0.121

Please answer likewise for COc1ccc(-c2cc(C(F)F)n3ncc(C(=O)N4CCN(C)CC4)c3n2)cc1
-0.201

For Cc1ccc(Cn2nnc3c(=O)[nH]c(C4CCN(C(=O)c5cccs5)CC4)nc32)cc1 then?
-0.73

---

Listed molecules paired with reported z-score
- test.target: Metabotropic glutamate receptor 8 (Rattus norvegicus)
- method.summary: mGluR8 Gi/Go-coupled signaling modulation – cell-based, rat, thallium flux, HTS, primary screen (AID 488969)
- measurement.conditions: HEK293 rat mGluR8, GIRK (G protein-gated inwardly rectifying potassium channel) thallium flux, FluoZin2; at 10 µM; stronger effect = higher value; submaximal glutamate (EC20) added with thallium
In all, about 110,000 compounds were measured (“z-score”: median about -0.1, highest 2% from about 2 on). Many of the other results were omitted from the sample, so the highest values are more common in it than they were.
Lab note: record the figure alone, no unit after it.

Worked examples follow.
>>> numeric_readout("Cc1[nH]n(-c2ccccc2)c(=O)c1C=Nc1cnc2ccccc2c1")
0.416
>>> numeric_readout("CCOC(=O)CSc1c(-c2ccccc2)c2cc(Cl)ccc2[nH]c1=O")
-0.516
>>> numeric_readout("CC(C)OC(=O)c1cc2c(ccn2C)n1CC(=O)N(Cc1ccccc1)c1ccccc1")
-0.243
>>> numeric_readout("CCOc1ccc(N=Cc2c(C)[nH]n(-c3nc4ccccc4[nH]3)c2=O)cc1")
0.0911
>>> numeric_readout("COC(=O)C1C2C=CC3(CN(C4CCCC4)C(=O)C13)O2 (stereo not given)")
-1.65
>>> numeric_readout("O=C(c1ccccc1)c1ccc(OCCCN2CCCC2)cc1")
-0.0127
>>> numeric_readout("Cc1ccc(OCCCNC2CCCC2)cc1")
-0.0441
>>> numeric_readout("c1ccc(COc2ccc(OCCCNC3CCCC3)cc2)cc1")
2.46

Look up z-score for this molecule: CCOc1ccc2nc(/N=C/c3c(C)[nH]n(-c4ccc(C)cc4)c3=O)sc2c1
10.6

Do the same for Cc1ccc(S(=O)(=O)N2CCCC2C(=O)Nc2cc(C)on2)cc1 (stereo not given) please
0.4

Another: Cc1ccc(-n2[nH]c(C)c(C=Nc3ccc(S(=O)(=O)Nc4nc(C)cc(C)n4)cc3)c2=O)c(C)c1
-0.0925

What do we get for CCOc1ccc2nc(/N=C/c3c(C)[nH]n(-c4ccccc4)c3=O)sc2c1 ?
13.8

Record: CC(C)(C)C(=O)NC(=S)NCCc1ccccc1
-0.0291

Moving on to the next molecule: CC(C)NS(=O)(=O)c1ccc(NC(=O)C2CC3C=CC2C3)cc1 (stereo not given)
-0.0807

Here is the next molecule: CC1CCN(CCCCOc2ccc(C(=O)c3ccccc3)cc2)CC1
2.47

Then O=C(NC(=S)N(CCc1ccccc1)CCc1ccccc1)c1ccco1 ?
-1.87
